Test: modulators of CD8 T cell-vesicle binding, confirmation, cherry-picked primary hits, two concentrations (AID 2810);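 also: ratio of mean FL2 vesicle stain of CD8+ cells to that row's control; lower values mean blocking of vesicle binding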
Conditions: 2C CD8+ T cell-vesicle binding, flow cytometry; response; at 7.7 µM
The whole screen tested about 1,200 compounds, of which about 65 (5%) were called active. What follows is part of a selection rich in actives, with near analogues and random picks from the rest.
Reported values of percent response (vesicle binding) for individual entries
API: value field is a number in %; no unit string.

**Q:** # return recorded percent response (vesicle binding) for entry O=C(Nc1nnc(C2=COCCO2)o1)C1CCCCC1
**A:** 280

**Q:** # return recorded percent response (vesicle binding) for entry Cn1c(SCC(=O)Nc2ccc3cn[nH]c3c2)nnc1-c1cccs1
**A:** 160
